Literature IC50 values, system: Tyrosine-protein kinase receptor UFO (Homo sapiens).

Recorded results for 8 compounds are shown here.
Compound: C[C@@H](CC(F)(F)F)Nc1ncc2c(OC3CCN(S(C)(=O)=O)CC3)ncc([C@H]3CC[C@H](O)CC3)c2n1
IC50: 100 to 1000 nM
//
Compound: COC[C@H](C)Nc1ncc2c(-c3cnn(CC4(C#N)CC4)c3)cc([C@H]3CC[C@H](O)CC3)n2n1
IC50: ≤ 100 nM
//
Compound: O[C@H]1CC[C@H](c2cnc(OC3CCOCC3)c3cnc(NCCC(F)(F)F)nc32)CC1
IC50: 100 to 1000 nM
//
Compound: CCCCNc1ncc2c3ccc(CNCCO)cc3c(=O)n([C@H]3CC[C@H](O)CC3)c2n1
IC50: > 1000 nM
//
Compound: COC[C@H](C)Nc1ncc2c(OC3CCOCC3)ncc([C@H]3CCCNC3)c2n1
IC50: 100 to 1000 nM
//
Compound: COC[C@H](C)Nc1ncc2c(-c3ccnc(N4CCOC(C(C)(C)O)C4)c3)cc([C@H]3CC[C@H](O)CC3)n2n1 (stereo partly drawn)
IC50: ≤ 100 nM
//
Compound: COC[C@H](C)Nc1ncc2c(OC3CCOCC3)ncc(-c3cn[nH]c3)c2n1
IC50: 1000 to 10000 nM
//
Compound: COC[C@H](C)Nc1ncc2c(-c3cnn(C4COC4)c3)cc([C@@H]3CC[C@@H](O)C(C)(C)C3)n2n1
IC50: 100 to 1000 nM

IC50 of COC[C@H](C)Nc1ncc2c(-c3cn(C)nc3C)cc([C@H]3CC[C@H](O)CC3)n2n1 , assay on Tyrosine-protein kinase receptor UFO (Homo sapiens), is 100 to 1000 nM

Reported IC50 (Tyrosine-protein kinase receptor UFO (Homo sapiens)) for entry OC1CCC(c2cc(-c3ccnc(N4CCOCC4)c3)c3cnc(NCCC4CC4)nn23)CC1 (stereo not drawn) is ≤ 100 nM

// returns IC50 for C[C@@H](CF)Nc1ncc2c(OC3CCOCC3)ncc([C@H]3CC[C@H](O)CC3)c2n1 with Tyrosine-protein kinase receptor UFO (Homo sapiens); value = 100 to 1000 nM

Form field IC50 for item COC[C@H](C)Nc1ncc2c(-c3cnn(C4COC4)c3)cc([C@@H]3CC[C@H](O)[C@@H](C)C3)n2n1 on Tyrosine-protein kinase receptor UFO (Homo sapiens): 100 to 1000 nM

IC50 value, target or system Tyrosine-protein kinase receptor UFO (Homo sapiens), for COC[C@H](C)Nc1ncc2c(-c3cnn(CC(=O)NC(C)C)c3)cc([C@H]3CC[C@H](O)CC3)n2n1 : 100 to 1000 nM

Per the reported Tyrosine-protein kinase receptor UFO (Homo sapiens) data, CNS(=O)(=O)N[C@H]1CC[C@H](c2cnc(OC3CCOCC3)c3cnc(N[C@@H](C)COC)nc32)CC1 has IC50 of 1000 to 10000 nM

Case Nc1ncc(-c2cnn(C3CCNCC3)c2)cc1-c1nc(-c2ccccc2)no1 , Tyrosine-protein kinase receptor UFO (Homo sapiens), IC50 recorded as < 500 nM
